assay: chemical genetic growth profiling, strain panel (AID 1159580);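 note: tested at 20 µM; growth read once vehicle control cultures reached saturation at 30 °C; 1 = growth at the plate median or of vehicle wells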; details: S. cerevisiae deletion strains, growth OD, locus YPL055C, strain LGE1, stronger effect = lower value
The campaign covered roughly 5,500 compounds. About 2,000 (36%) were called active. Inconclusive results (about 18%) are left out. The list shows a part of the results.
Strictly below 1 in normalized growth: condition met. Otherwise: condition not met.

Inquiry: # strict comparison: is reported normalized growth < 1? input = CCCCSP(=O)(SCCCC)SCCCC
Reply text: condition not met

Inquiry: # strict comparison: is reported normalized growth < 1? input = CC1CC2C3CC(F)C4=CC(=O)C=CC4(C)C3(F)C(O)CC2(C)C1C(=O)COC(=O)C(C)(C)C (configuration not stated)
Reply text: condition met

Inquiry: # strict comparison: is reported normalized growth < 1? input = CSC(=NC(=O)c1c(Cl)cccc1Cl)SC
Reply text: condition met

Inquiry: # strict comparison: is reported normalized growth < 1? input = CC(=O)Nc1ccccc1
Reply text: condition met

Inquiry: # strict comparison: is reported normalized growth < 1? input = C[C@H](N)[C@H](O)c1cccc(O)c1
Reply text: condition not met

Inquiry: # strict comparison: is reported normalized growth < 1? input = COc1cc(S(C)=O)ccc1-c1nc2ncccc2[nH]1 (configuration not stated)
Reply text: condition met

Inquiry: # strict comparison: is reported normalized growth < 1? input = CCc1ccccc1NC(C)=O
Reply text: condition met

Inquiry: # strict comparison: is reported normalized growth < 1? input = CC(C)CCCC(C)C1CCC2C3CC[C@H]4CCCC[C@]4(C)C3CC[C@]12C (some centres not stated)
Reply text: condition met

Inquiry: # strict comparison: is reported normalized growth < 1? input = O=C(Nc1ccccc1)c1ccccc1O
Reply text: condition met

====

What normalized growth was measured for each of the following?
assay: chemical genetic growth profiling, strain panel (AID 1159580); conditions: S. cerevisiae deletion strains, growth OD, locus YNL197C, strain WHI3, stronger effect = lower value
The campaign covered roughly 5,500 compounds. About 2,000 (36%) were called active. Not shown: some 18% with an inconclusive outcome. The list shows a part of the results.

Inquiry: So what's the measured normalized growth for this one? CN1CCN(c2ccc3ccccc3n2)CC1
Reply text: 1 (inactive)

Inquiry: So what's the measured normalized growth for this one? CCCCN1CCC(COC(=O)c2cc(Cl)c(N)c3c2OCCO3)CC1
Reply text: 0.991 (inactive)

Inquiry: So what's the measured normalized growth for this one? CCO/C([O-])=N/c1c[n+](N2CCOCC2)no1
Reply text: 0.984 (inactive)

Inquiry: So what's the measured normalized growth for this one? NC(=NCCCC(N)C(=O)O)N[N+](=O)[O-] (stereo not given)
Reply text: 1.01 (inactive)

Inquiry: So what's the measured normalized growth for this one? NCC(CC(=O)O)c1ccc(Cl)cc1 (stereo not given)
Reply text: 1.04 (inactive)

Inquiry: So what's the measured normalized growth for this one? Cc1nc2sccn2c(=O)c1CCN1CCC(=C(c2ccccc2)c2ccc(F)cc2)CC1
Reply text: 1.05 (inactive)

Inquiry: So what's the measured normalized growth for this one? O=c1cc(-c2ccc(O)c(O)c2)oc2cc(O)cc(O)c12
Reply text: 1.02 (inactive)

Inquiry: So what's the measured normalized growth for this one? CCN(CC)C(C)C(=O)N1c2ccccc2Sc2ccccc21 (stereo not given)
Reply text: 1.03 (inactive)

Inquiry: So what's the measured normalized growth for this one? NS(=O)(=O)c1cc2c(cc1Cl)NC(C1CC3C=CC1C3)NS2(=O)=O (stereo not given)
Reply text: 0.982 (inactive)

Inquiry: So what's the measured normalized growth for this one? NC(N)=NC(=O)Cc1c(Cl)cccc1Cl
Reply text: 1.02 (inactive)

Inquiry: So what's the measured normalized growth for this one? C[C@H]1C2Cc3ccc(O)cc3[C@]1(C)CCN2CC1CC1
Reply text: 1.02 (inactive)

Inquiry: So what's the measured normalized growth for this one? O=c1ccn([C@@H]2O[C@H](COP(=O)(O)OP(=O)(O)O)[C@@H](O)[C@H]2O)c(=O)[nH]1
Reply text: 0.967 (inactive)

Inquiry: So what's the measured normalized growth for this one? CC1CCN(CC[C@H]2CCCN2S(=O)(=O)c2cccc(O)c2)CC1
Reply text: 1.01 (inactive)

Inquiry: So what's the measured normalized growth for this one? CN(C)CC[C@@H](c1ccc(Br)cc1)c1ccccn1
Reply text: 0.928 (inactive)

Inquiry: So what's the measured normalized growth for this one? OCC1O[C@H](O)C(Cl)C(O)C1O (stereo not given in full)
Reply text: 0.986 (inactive)

Inquiry: So what's the measured normalized growth for this one? NNCCc1ccccc1
Reply text: 0.996 (inactive)

Inquiry: So what's the measured normalized growth for this one? O=C1NC(c2cccc([N+](=O)[O-])c2)=CCN1c1ccccc1O
Reply text: 1.01 (inactive)

Inquiry: So what's the measured normalized growth for this one? CN(C)CCOC(=O)COc1ccc(Cl)cc1
Reply text: 0.954 (inactive)

Inquiry: So what's the measured normalized growth for this one? N[C@@H](Cc1ccc(F)cc1)C(=O)O
Reply text: 0.995 (inactive)

Inquiry: So what's the measured normalized growth for this one? C#CCN(C)CCCOc1ccc(Cl)cc1Cl
Reply text: 1 (inactive)

Inquiry: So what's the measured normalized growth for this one? CC(CN(C)C)CN1c2ccccc2CCc2ccccc21 (stereo not given)
Reply text: 1.02 (inactive)

Inquiry: So what's the measured normalized growth for this one? CCn1c(=O)c2[nH]c(-c3ccccc3)nc2n(CC)c1=O
Reply text: 1.01 (inactive)

Inquiry: So what's the measured normalized growth for this one? N[C@H](CCCCCP(=O)(O)O)C(=O)O
Reply text: 0.968 (inactive)

Inquiry: So what's the measured normalized growth for this one? CN1CCN(c2nc3cc(C(F)(F)F)ccc3n3cccc23)CC1
Reply text: 1.06 (inactive)

Inquiry: So what's the measured normalized growth for this one? Cc1nc2ccccn2c(=O)c1CCN1CCC(C(=O)c2ccc(F)cc2)CC1
Reply text: 1.03 (inactive)

====

experiment: chemical genetic growth profiling, strain panel (AID 1159580);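 note: tested at 20 µM; growth read once vehicle control cultures reached saturation at 30 °C; 1 = growth at the plate median or of vehicle wells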; details: S. cerevisiae deletion strains, growth OD, locus YOR231W, strain MKK1
The whole screen tested about 5,500 compounds, of which about 2,000 (36%) were called active. Not shown: some 18% with an inconclusive outcome. No stated cut-off is given here; in the data, active means normalized growth mostly below about 0.91 (no sharp cut-off); inconclusive means no clear call, values can overlap the other calls; inactive means mostly above about 0.92. This is one part of the list.
Outcome field: choose from true (active), false (inactive)

Inquiry: Per the assay record, what outcome was assigned to CCCCC[C@H](CC(=O)NO)C(=O)N[C@H](C(=O)N1CCC[C@H]1CO)C(C)C ?
Reply text: false

Inquiry: Per the assay record, what outcome was assigned to CCSCCC(N)C(=O)O (stereo unspecified) ?
Reply text: false

Inquiry: Per the assay record, what outcome was assigned to CNC(=O)Oc1ccc2c(c1)[C@]1(C)CCN(C)[C@@H]1N2C ?
Reply text: false

Inquiry: Per the assay record, what outcome was assigned to CN(C)N=Nc1nc[nH]c1C(N)=O ?
Reply text: false

Inquiry: Per the assay record, what outcome was assigned to CCCCS(=N)(=O)CCC(N)C(=O)O (stereo unspecified) ?
Reply text: false

Inquiry: Per the assay record, what outcome was assigned to COc1cc(C)c(C(=O)Oc2cc(C)c(C(=O)O)c(O)c2C)c(OC)c1C ?
Reply text: true

====

experiment: chemical genetic growth profiling, strain panel (AID 1159580);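 note: tested at 20 µM; growth read once vehicle control cultures reached saturation at 30 °C; 1 = growth at the plate median or of vehicle wells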; conditions: S. cerevisiae deletion strains, growth OD, locus YMR263W, strain SAP30, stronger effect = lower value
The campaign covered roughly 5,500 compounds. About 2,000 (36%) were called active. Inconclusive results (about 18%) are left out. The list shows a part of the results.
Quantity Measured: normalized growth
// keep it numeric: no unit symbol after the value

Inquiry: So what's the measured normalized growth for this one? NNCCc1ccccc1
Reply text: 1

Inquiry: So what's the measured normalized growth for this one? CN(C(=O)CN(CCO)CC(=O)N(C)C(C)(C)Cc1ccccc1)C(C)(C)Cc1ccccc1
Reply text: 0.995

Inquiry: So what's the measured normalized growth for this one? Cc1ccc2cc(NC(=O)c3ccco3)ccc2n1
Reply text: 0.938

Inquiry: So what's the measured normalized growth for this one? COc1ccc(CNc2ccccc2-c2nc3ccccc3[nH]2)cc1
Reply text: 0.948

Inquiry: So what's the measured normalized growth for this one? CN1CCN(C2=Nc3ccccc3Oc3ccc(Cl)cc32)CC1
Reply text: 0.994

Inquiry: So what's the measured normalized growth for this one? COc1ccc(CCNC(=S)NCCc2ccc(OC)c(OC)c2)cc1OC
Reply text: 1.06

====

assay: chemical genetic growth profiling, strain panel (AID 1159580);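 note: tested at 20 µM; growth read once vehicle control cultures reached saturation at 30 °C; 1 = growth at the plate median or of vehicle wells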; conditions: S. cerevisiae deletion strains, growth OD, locus YGL173C, strain kem1, stronger effect = lower value
The whole screen tested about 5,500 compounds, of which about 2,000 (36%) were called active. Roughly 18% stayed inconclusive and do not appear here. This is one part of the list.
Quantity Measured: normalized growth
// keep it numeric: no unit symbol after the value

Inquiry: So what's the measured normalized growth for this one? N[C@H](Cc1ccccc1)C(=O)O
Reply text: 0.97

Inquiry: So what's the measured normalized growth for this one? C=C1[C@H]2CC[C@@]3(C)[C@H](c4ccoc4)OC(=O)C[C@]13O[C@H]1C[C@H](O)C(C)(C)[C@H](CC(=O)OC)[C@]12C
Reply text: 1.04

Inquiry: So what's the measured normalized growth for this one? COc1cc(OC)c(OC)cc1C=O
Reply text: 0.997

Inquiry: So what's the measured normalized growth for this one? N[C@H](Cc1cc(I)c(Oc2ccc(O)c(I)c2)c(I)c1)C(=O)O
Reply text: 0.952

Inquiry: So what's the measured normalized growth for this one? CC1(C)C(O)CC(O)C2(C)C1CC(O)C1(C)C2CCC2(C)C(c3ccoc3)OC(=O)C3OC321 (stereo not given)
Reply text: 0.985

Inquiry: So what's the measured normalized growth for this one? CCCCCC1C(=O)CCC1CC(=O)OC (stereo not given)
Reply text: 0.967

Inquiry: So what's the measured normalized growth for this one? NC(Cc1ccc(F)cc1)C(=O)O (stereo not given)
Reply text: 1.02

Inquiry: So what's the measured normalized growth for this one? C=C1C2CC[C@@]3(C)[C@H](c4ccoc4)OC(=O)C[C@]13O[C@H]1CC(=O)C(C)(C)C(CC(=O)OC)[C@@]21C (stereo not given in full)
Reply text: 0.969

Inquiry: So what's the measured normalized growth for this one? CCCCCC1C(=O)CCC1CC(=O)O (stereo not given)
Reply text: 0.989

Inquiry: So what's the measured normalized growth for this one? C=C1C2=CC(=O)O[C@@H](c3ccoc3)[C@]2(C)CCC1[C@@]1(C)C=CC(=O)C(C)(C)[C@@H]1CC(=O)OC (stereo not given in full)
Reply text: 0.99
